protocol_notes: Ocular tissue concentrations, 0.3% Compound-I Tris-based suspension twice daily 30 days
Assay type: in vivo, Dutch-Belted rabbits
condition_info: Dutch-Belted, rabbit, central retina, topical; 0.3% Tris-based suspensions with and without benzylalkonium chloride, twice daily, 1 hour after first daily dose on day 30; read-out: Mean ocular tissue concentration, central retina
reported_property: concentration at 1 h

Query :: Provide concentration at 1 h value for the following compound: Cl.NC(=O)c1c(OCc2c(F)cc(Br)cc2F)nsc1NC(=O)NCCCCN1CCCC1 [Compound-I, hydrochloride]
Result :: 49.5 to 59.2 nM

###

protocol_notes: Solubility of Compound-I drug substance
Type: physicochemical
condition_info: 0.1N NaOH, aqueous buffer
reported_property: solubility (µg/mL)
Output spec: scalar in µg/mL, unitless text.

Query :: Output solubility of Cl.NC(=O)c1c(OCc2c(F)cc(Br)cc2F)nsc1NC(=O)NCCCCN1CCCC1
Result :: 50
